All figures here come from paper PMC8279416.

- experimental_target: NOD2 (Homo sapiens)
- Construct: host or cells: HEK-Blue NOD2 cells (HEK293-derived)
- test_method_notes: HEK-Blue NOD2 cell line reporter assay (NF-κB-inducible SEAP)
- Assay type: cell-based
- applied_conditions: HEK-Blue NOD2 cells, 2 μM, 18 h, NF-κB transcriptional (SEAP) activity relative to 0.1% DMSO, mean ± SEM
Examples of compounds with documented NOD2 activity at 2 μM (fold increase) follow.
Write down the numeric answer in fold increase and omit the unit.

Some entries whose results are on file:
| compound | scale_unit | NOD2 activity at 2 μM (fold increase) |
| --- | --- | --- |
| CCOC(=O)CC[C@@H](NC(=O)[C@@H](NC(=O)CNC(=O)/C=C/c1ccc(OC)c(OC)c1)C(C)C)C(=O)OCC | fold increase | 2.64 |
| CONC(=O)CC[C@@H](NC(=O)[C@@H](NC(=O)CNC(=O)/C=C/c1ccc(O)c(OC)c1)C(C)C)C(=O)OC(C)(C)C | fold increase | 1.32 |
| CCOC(=O)CC[C@@H](NC(=O)[C@@H](NC(=O)CNC(=O)/C=C/c1ccc(OC(C)=O)c(OC)c1)C(C)C)C(=O)OCC | fold increase | 3.05 |
| CCOC(=O)CC[C@@H](NC(=O)[C@@H](NC(=O)CNC(=O)/C=C/c1ccc(O)c(O)c1)C(C)C)C(=O)OCC | fold increase | 2.28 |
| CCCCCCCCCCCCCCCCCC(=O)Oc1ccc(/C=C/C(=O)NCC(=O)N[C@H](C(=O)N[C@H](CCC(=O)OCC)C(=O)OCC)C(C)C)cc1OC | fold increase | 2.37 |

Could you now look at the following compound, please?
Item CCOC(=O)CC[C@@H](NC(=O)[C@@H](NC(=O)CNC(=O)C1CC1c1ccc(OC)c(OC)c1)C(C)C)C(=O)OCC (stereo partly drawn) has what recorded NOD2 activity at 2 μM (fold increase)? 2.63

* * *

- experimental_target: NOD2 (Homo sapiens, UniProt Q9HC29)
- Construct: host or cells: HEK-Blue NOD2 cells (HEK293-derived)
- Sequence (Q9HC29 whole entry): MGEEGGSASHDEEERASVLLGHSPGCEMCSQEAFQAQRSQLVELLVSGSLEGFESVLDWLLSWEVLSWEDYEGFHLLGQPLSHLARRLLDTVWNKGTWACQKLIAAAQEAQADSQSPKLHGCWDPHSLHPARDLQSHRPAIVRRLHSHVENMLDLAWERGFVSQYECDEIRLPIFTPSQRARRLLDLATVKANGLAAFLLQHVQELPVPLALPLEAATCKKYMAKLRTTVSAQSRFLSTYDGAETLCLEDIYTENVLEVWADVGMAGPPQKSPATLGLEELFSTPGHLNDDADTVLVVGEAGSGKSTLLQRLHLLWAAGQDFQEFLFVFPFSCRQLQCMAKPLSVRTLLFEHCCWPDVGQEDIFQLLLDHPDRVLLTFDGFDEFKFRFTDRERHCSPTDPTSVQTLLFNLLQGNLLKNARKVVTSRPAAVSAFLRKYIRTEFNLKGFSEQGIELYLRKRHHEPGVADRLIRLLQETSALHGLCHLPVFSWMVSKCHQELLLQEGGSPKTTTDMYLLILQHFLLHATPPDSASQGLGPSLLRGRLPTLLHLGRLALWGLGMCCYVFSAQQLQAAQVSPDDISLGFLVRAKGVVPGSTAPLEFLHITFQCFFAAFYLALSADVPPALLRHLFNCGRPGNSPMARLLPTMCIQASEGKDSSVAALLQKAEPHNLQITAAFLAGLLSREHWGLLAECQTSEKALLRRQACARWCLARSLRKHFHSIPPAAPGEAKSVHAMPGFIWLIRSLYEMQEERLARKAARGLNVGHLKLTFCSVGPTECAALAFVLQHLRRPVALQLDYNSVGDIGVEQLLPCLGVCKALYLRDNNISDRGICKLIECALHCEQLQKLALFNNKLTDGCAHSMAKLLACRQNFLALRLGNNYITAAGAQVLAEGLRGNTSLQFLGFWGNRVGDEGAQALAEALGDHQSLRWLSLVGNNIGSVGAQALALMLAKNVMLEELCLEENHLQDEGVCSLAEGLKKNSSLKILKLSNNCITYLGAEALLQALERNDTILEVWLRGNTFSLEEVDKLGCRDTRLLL
- test_method_notes: HEK-Blue NOD2 cell line reporter assay (NF-κB-inducible SEAP)
- Assay type: cell-based
- applied_conditions: HEK-Blue NOD2 cells, 18 h, 7 or 8 concentrations 1 nM to 20 μM, mean ± SEM
pEC50: −log10 of the molar value.
Classify as follows. Reported pEC50 greater than or equal to 6: t. Reported pEC50 below: f.

Please review the entries below; each comes with its answer.
| compound | assigned_category |
| --- | --- |
| CCOC(=O)CC[C@@H](NC(=O)[C@@H](NC(=O)CNC(=O)C1CC1c1ccc(F)c(F)c1)C(C)C)C(=O)OCC (stereo partly shown) [Compound 29] | t |
| CCOC(=O)CC[C@@H](NC(=O)[C@@H](NC(=O)CNC(=O)CCCc1ccc(O)c(OC)c1)C(C)C)C(=O)OCC [Compound 19] | f |

Determine whether this compound has pEC50 no lower than 6: CCOC(=O)CC[C@@H](NC(=O)[C@@H](NC(=O)CNC(=O)[C@@H]1C[C@H]1c1ccc(F)c(F)c1)C(C)C)C(=O)OCC [Compound 29b] t

Decide: pEC50 of CCOC(=O)CC[C@@H](NC(=O)[C@@H](NC(=O)CNC(=O)[C@H]1C[C@@H]1c1ccc(F)c(F)c1)C(C)C)C(=O)OCC [Compound 29a] >= 6? t

Quick check, pEC50 >= 6? COc1cc(/C=C/C(=O)NCC(=O)N[C@H](C(=O)N[C@H](CCC(=O)OC2CCCC2)C(=O)OC2CCCC2)C(C)C)ccc1OC(C)=O [Compound 76] t
